B1: glmS ribozyme (parent)
chain: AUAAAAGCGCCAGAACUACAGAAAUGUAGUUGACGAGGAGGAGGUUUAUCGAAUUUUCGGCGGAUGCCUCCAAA

- Variants of: B1
- assayProcedure: self-cleavage kobs at 40 uM GlcN6P; higher = faster cleavage; RNA array
- assayConditions: with glucosamine-6-phosphate
This sample holds only a part of the variants without activity.
So I've got a bunch of variants here, and I need their self-cleavage kobs at 40 uM GlcN6P values.

{"macromoleculeSequence": "AUAAAAGCGCCAGAAGUACAGAAAUGUAGUUGACGAGGAGGAGGUUUAUCGAAUUUUCGGCGGAUGCCUUCAAA", "self-cleavage kobs at 40 uM GlcN6P": "0.000111 s⁻¹"}
{"macromoleculeSequence": "AUAAAAACGCCAGAACUACAGAAAUGUAGUUGACGAGGAGGAGGUUUAUCGAAUUUUUGGCGGAUGCGUCCAAA", "self-cleavage kobs at 40 uM GlcN6P": "0.000285 s⁻¹"}
{"macromoleculeSequence": "AUAAAAGAGCCAGAACUACAGAAAUGUAGUUGACGAGGAGGAGGUUUAUCGAAUUUUCGGCUGAUGCCUCCAAA", "self-cleavage kobs at 40 uM GlcN6P": "< 1e-05 s⁻¹"}
{"macromoleculeSequence": "AUAAAAGGGCCAGAACUACAGAAAUGUAGUUGACGAGGAGGAGGUUUAUGGAGUUUUCGGCGGGUGCCUCCAAA", "self-cleavage kobs at 40 uM GlcN6P": "0.000149 s⁻¹"}
{"macromoleculeSequence": "AUAAAAGCGCCAGAACUACAGAAAUGUAGUUGACGCGGAGGAGGUUUAUCGAAUUUUCGGCAGAUGCCUCCAAA", "self-cleavage kobs at 40 uM GlcN6P": "< 1e-05 s⁻¹"}

Respectfully, I request self-cleavage kobs at 40 uM GlcN6P for each entry included below.
1. AUAAAAGCGCCAGAACUACAGAAAUGUAGUUGACGAGGAGCAGGUUUAUCGAAUUUUCGGCGGAUGUCUCCAAA
2. AUAAAAGCGCCAGAACUACAGAAAUGUAGUUGACGAGGAGGAGGUUGAUCGAAUUUUCGGCGGAUGUCUCCAAA
3. AUAAAAGCGCCAGAGGUACAGAAAUGUAGUUGGCGAGGAGGAGGUUUAUCGGAUUUUCGACGGAUGCCUCCAAA
4. AUAAAAGCGCCAGAACUACAGAAAUGUAGAUGACGAGGAGGAGGUUUAUCGUAUUUUCGGCGGAUGCCUCCAAA
5. AUAAAAGCGCCAGAACUACAGAAAUGUAGUUGACGAGGAGGAGGUUUAUCGAAUUUUCGACGGAUGCCUUCAAA
6. AUAAAAGAGCCAGAACUACAGAAAUGUAGUUGACGAGGAGGAGGGUUAUCGAAUUUUCGGCGGAUGCCCCGAAA

A.
["< 1e-05 s⁻¹", "0.000141 s⁻¹", "< 1e-05 s⁻¹", "< 1e-05 s⁻¹", "< 1e-05 s⁻¹", "< 1e-05 s⁻¹"]
